Organism: Rattus norvegicus
test_name: DrugMatrix - Regimen: Daily Repeat
Type: toxicity, organism-based, Sprague-Dawley
Design: regimen Daily Repeat, gender Male, age 6-8 weeks
condition_details: in vivo, po, 0 mg/kg, 120 h, tissue Blood, route oral GAVAGE, dose level Control, time 5 day, vehicle 100 % WATER
Listed next: entries and their corresponding HEMATOCRIT.
measured_metric: HEMATOCRIT (%)

1) CNS(=O)(=O)Cc1ccc2[nH]cc(CCN(C)C)c2c1 36.48
2) CCOC(N)=O 34.83
3) CCCc1nn(C)c2c(=O)[nH]c(-c3cc(S(=O)(=O)N4CCN(C)CC4)ccc3OCC)nc12 34.63
4) O=C(O)c1cccnc1 35.65
5) CCCCCCCCCCCCCCCC[n+]1ccccc1.[Br-] 36.88

----------
Species on record: Rattus norvegicus
test_name: DrugMatrix - Regimen: Daily Repeat
Assay type: toxicity, organism-based, Sprague-Dawley
Design: regimen Daily Repeat, gender Male, age 6-8 weeks
condition_details: in vivo, po, 0 mg/kg, 72 h, tissue Plasma, route oral GAVAGE, dose level Control, time 3 day, […]
Listed next: entries and their corresponding ASPARTATE AMINOTRANSFERASE.

compound	ASPARTATE AMINOTRANSFERASE, u/L
CC[C@H](C)C(=O)O[C@H]1C[C@@H](C)C=C2C=C[C@H](C)[C@H](CC[C@@H]3C[C@@H](O)CC(=O)O3)[C@H]21	101.33
CC(=O)Nc1nnc(S(N)(=O)=O)s1 [ACETAZOLAMIDE]	102.67
C#C[C@]1(O)CC[C@H]2[C@@H]3CCc4cc(O)ccc4[C@H]3CC[C@@]21C	97.17
CCn1cc(C(=O)O)c(=O)c2cc(F)c(N3CCNCC3)nc21	97.17
CN(CCOc1ccc(CC2SC(=O)NC2=O)cc1)c1ccccn1 (stereo unspecified)	83.5
OCCN1CCN(CCCN2c3ccccc3Sc3ccc(C(F)(F)F)cc32)CC1	90.83

----------
Species: Rattus norvegicus
test_name: DrugMatrix - Regimen: Daily Repeat
Format: toxicity, organism-based, Sprague-Dawley
Set-up: regimen Daily Repeat, gender Male, age 6-8 weeks
condition_details: in vivo, po, 0 mg/kg, 72 h, tissue Plasma, route oral GAVAGE, dose level Control, time 3 day, vehicle .5 % CMC
Listed next: entries and their corresponding LIPASE.
measured_metric: LIPASE (u/L)

compound	meas_value
Cc1cnc(C(=O)NCCc2ccc(S(=O)(=O)NC(=O)NC3CCCCC3)cc2)cn1 [GLIPIZIDE]	10
CCOC(=O)[C@H](CCc1ccccc1)N[C@@H](C)C(=O)N1Cc2ccccc2C[C@H]1C(=O)O	10
COc1ccccc1OCC(O)COC(N)=O (stereo not drawn)	10.33
COc1ccc(/C=C/C(=O)Nc2ccccc2C(=O)O)cc1OC	9.5
C[C@@H]1CC[C@H]2[C@@H](C)C(=O)O[C@@H]3O[C@@]4(C)CC[C@@H]1[C@]32OO4	10.33
CO[C@H]1C[C@@H]2CC[C@@H](C)[C@@](O)(O2)C(=O)C(=O)N2CCCC[C@H]2C(=O)O[C@H]([C@H](C)C[C@@H]2CC[C@@H](O)[C@H](OC)C2)CC(=O)[C@H](C)/C=C(\C)[C@@H](O)[C@@H](OC)C(=O)[C@H](C)C[C@H](C)/C=C/C=C/C=C/1C	9.33
CC(C(=O)O)c1ccc(-c2ccccc2)c(F)c1 (stereo not drawn)	9.5
Nc1cccc(Cl)c1	11.83
CC(C)(Sc1cc(C(C)(C)C)c(O)c(C(C)(C)C)c1)Sc1cc(C(C)(C)C)c(O)c(C(C)(C)C)c1	9.5
CC(=O)O[C@]1(C(C)=O)CC[C@H]2[C@@H]3C=C(Cl)C4=CC(=O)[C@@H]5C[C@@H]5[C@]4(C)[C@H]3CC[C@@]21C [CYPROTERONE ACETATE]	10
CN1C(=O)CN=C(c2ccccc2)c2cc(Cl)ccc21	9
CCCCC1C(=O)N(c2ccccc2)N(c2ccccc2)C1=O	9.83
C[C@@H](O)[C@H]1C(=O)N2C(C(=O)O)=C(S[C@@H]3CN[C@H](C(=O)N(C)C)C3)[C@H](C)[C@H]12	9.5
